src = paper PMC6017322

Target: cathepsin G (Homo sapiens, UniProt P08311)
Construct: purified cathepsin G (0.2 µg) from human neutrophils; purchased Calbiochem; host or cells: human neutrophils (natural source)
Sequence (P08311 21-244 limits assumed): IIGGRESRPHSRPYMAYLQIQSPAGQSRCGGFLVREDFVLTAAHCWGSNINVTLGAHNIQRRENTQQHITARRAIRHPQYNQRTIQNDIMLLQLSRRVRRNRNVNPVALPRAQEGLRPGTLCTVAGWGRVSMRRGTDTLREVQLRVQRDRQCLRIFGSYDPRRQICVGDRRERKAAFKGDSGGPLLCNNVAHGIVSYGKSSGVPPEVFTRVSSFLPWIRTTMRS
Test: Cathepsin G activity in a cell-free assay (Suc-AAPF-pNA substrate)
Format: biochemical
Details: residual activity at 10 µM; cell-free; mean ± SEM, 3–4 experiments; read-out: Cat. G Activity [% Control]
endpoint label: remaining activity at 10 µM
Please answer using the number first and the unit second.

Some entries whose results are on file:
CC(C)=CCC[C@H](C(=O)O)[C@@H]1CC[C@]2(C)C3=CC[C@H]4C(C)(C)[C@H](O)CC[C@]4(C)[C@H]3CC[C@@]12C	72.3%
CC(=O)O[C@@H]1CC[C@]2(C)C3=C(CC[C@H]2C1(C)C)[C@@]1(C)CC[C@@H]([C@H](CCC=C(C)C)C(=O)O)[C@]1(C)CC3	66.7%
C[C@H]1[C@H](C)CC[C@]2(C)CC[C@]3(C)C(=CC[C@@H]4[C@@]5(C)CC[C@@H](OC(=O)CCC(=O)O)[C@](C)(C(=O)O)[C@@H]5CC[C@]43C)[C@H]12	59.4%
C=C(C)[C@@H]1CC[C@]2(CO)CC[C@]3(C)[C@H](CC[C@@H]4[C@@]5(C)CC[C@@H](OC(C)=O)[C@](C)(C(=O)O)[C@@H]5CC[C@]43C)[C@@H]12	87.2%
CC(C)=CCC[C@H](C(=O)O)[C@@H]1CC[C@]2(C)C3=C(CC[C@@]12C)[C@@]1(C)CC[C@H](O)C(C)(C)[C@@H]1CC3	80.1%
C=C(C)[C@@H]1CC[C@]2(C)CC[C@]3(C)[C@H](CC[C@@H]4[C@@]5(C)CC[C@@H](O)[C@](C)(C(=O)O)[C@@H]5CC[C@]43C)[C@@H]12	58.1%
CC(C)=CCC[C@H](C(=O)O)[C@@H]1CC[C@]2(C)C3=C(CC[C@@]12C)[C@@]1(C)CCC(=O)C(C)(C)[C@@H]1CC3	53.1%
C[C@H]1[C@H](C)CC[C@]2(C)CC[C@]3(C)C(=CC[C@@H]4[C@@]5(C)CC[C@@H](OCC(=O)O)[C@](C)(C(=O)O)[C@@H]5CC[C@]43C)[C@H]12	28.8%

Here is another molecule to look at.
GET /values?readout=remaining activity at 10 µM&item= "CC(C)[C@@H]1CC[C@]2(C)[C@H](C(=O)C=C3[C@@H]4[C@@H](C)[C@H](C)CC[C@]4(C)CC[C@]32C)[C@@]1(C)CCC(=O)O"
53.8%

###

Biological target: cathepsin G (Homo sapiens, UniProt P08311)
Construct: purified cathepsin G (0.2 µg) from human neutrophils; purchased Calbiochem; host or cells: human neutrophils (natural source)
Sequence (P08311 21-244 limits assumed): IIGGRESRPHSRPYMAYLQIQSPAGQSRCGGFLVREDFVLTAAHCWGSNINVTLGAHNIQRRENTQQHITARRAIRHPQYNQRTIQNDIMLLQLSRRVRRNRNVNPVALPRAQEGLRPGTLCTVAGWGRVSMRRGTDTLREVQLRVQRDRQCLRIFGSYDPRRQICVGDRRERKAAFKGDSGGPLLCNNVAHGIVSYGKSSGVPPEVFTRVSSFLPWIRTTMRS
Assay: Cathepsin G activity in a cell-free assay (Suc-AAPF-pNA substrate)
Type: biochemical
Conditions: cell-free, purified cathepsin G from human neutrophils; read-out: Cat. G IC50 (converted)
Catalogue of compounds with associated IC50
Give the quantity in µM, number only.

Illustrative cases are given below, each with its answer.
C[C@H]1[C@H](C)CC[C@]2(C)CC[C@]3(C)C(=CC[C@@H]4[C@@]5(C)CC[C@@H](OC(=O)CCCC(=O)O)[C@](C)(C(=O)O)[C@@H]5CC[C@]43C)[C@H]12 [compound 24, 3-O-Glutaroyl-β-boswellic acid]	3.6
C=C(C)[C@@H]1CC[C@]2(C)CC[C@]3(C)[C@H](CC[C@@H]4[C@@]5(C)CC[C@@H](OC(C)=O)[C@](C)(C(=O)O)[C@@H]5CC[C@]43C)[C@@H]12 [compound 10]	7.5
C[C@H]1[C@H](C)CC[C@]2(C)CC[C@]3(C)C(=CC(=O)[C@@H]4[C@@]5(C)CC[C@@H](OC(=O)CCCC(=O)O)[C@](C)(C(=O)O)[C@@H]5CC[C@]43C)[C@H]12 [compound 25, 3-O-Glutaroyl-11-keto-β-boswellic acid]	8.6

Kindly review the next compound as well.
Any idea what its IC50 is? The compound is CC(=O)O[C@@H]1CC[C@@]2(C)[C@@H](CC[C@]3(C)[C@@H]2CC=C2[C@@H]4[C@@H](C)[C@H](C)CC[C@]4(C)CC[C@]23C)[C@@]1(C)C(=O)O [compound 4, 3-O-acteyl-β-BA]
2
